The reported measurements were obtained from ChEMBL document CHEMBL1201862.

measured-on: Caspase-3 (Homo sapiens, UniProt P42574)
Sequence (P42574 whole entry): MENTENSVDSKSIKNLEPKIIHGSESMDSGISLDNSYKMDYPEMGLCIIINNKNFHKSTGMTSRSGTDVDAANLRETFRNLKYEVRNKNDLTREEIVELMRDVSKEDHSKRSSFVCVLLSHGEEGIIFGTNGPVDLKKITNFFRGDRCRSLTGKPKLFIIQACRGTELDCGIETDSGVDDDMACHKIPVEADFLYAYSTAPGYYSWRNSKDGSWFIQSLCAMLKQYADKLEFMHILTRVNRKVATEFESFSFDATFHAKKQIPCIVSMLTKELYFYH
Type: functional
Active and inactive are the calls of the source.
quantity-kind: IC50

item_smiles=Cc1cc2nc(-c3ccc(SCC(=O)Nc4ccc(S(=O)(=O)NC5CC5)cc4)nc3)[nH]c2cc1C val="21.3 µM (active)"
item_smiles=O=C(Nc1ccccc1)N1CC=C(c2ccc(F)cc2)CC1 val="34.3 µM (active)"
item_smiles=COc1ccc(NC(=O)c2ccc(-c3ccccc3Cl)o2)cc1 val="16.2 µM (active)"
item_smiles=O=C1NC(=O)/C(=C/c2ccc(-c3cccc([N+](=O)[O-])c3)o2)S1 val="13.6 µM (active)"
item_smiles=COc1cccc2sc(Nc3nc(-c4ccccn4)cs3)nc12 val="31.7 µM (active)"
